# ASSAY PROTOCOL: protein stability index of a GFP-peptide fusion (yeast GPS) (PSI 1-4); higher = more stable; sorted into four equal gates, so the index is relative within each strain
# PARTICULARS: doa10∆
Item-by-item account of protein stability index
QUANTITY NAME: protein stability index

ANRSRFNNEAPPQTRKF [SMB1] | 3.05
EIDTILSTLRMEADPSL [RPN9] | 3.04
GANTSAAQTLLQMDYKD [PRE9] | 3
LQEKEQLYFKKKVNYKV [ISW2] | 2.96
LSNEFTATNSKGEQIAI [ECM29] | 3.06
VCGIIVKQEDMPFNDQG [RET1] | 3.06
MPGMPNMPGMPKVTPQM [SRP54] | 3.06
AAANNNIKPVEQHHINN [GAL11] | 2.97
ANLPANSSTSPAPSIPS [YLR335W/NUP2] | 2.94
MAKQLIRLANESSELNK [CSN12] | 3

Values compiled from the supplement of paper PMC9732359.
